Conditions: 0.1N HCL, 1.0% DMSO, 24-hour incubation at ambient temperature, maximum theoretical compound concentration 100 μM
Documented pH 2 solubility across a set of molecules
Quantity Name: pH 2 solubility

Molecule	Observed Measurement
COC(=O)CCC(=O)N(c1nn(CC(F)(F)F)c2c(-c3ccc(C#CC(C)(C)S(C)(=O)=O)nc3[C@H](Cc3cc(F)cc(F)c3)NC(=O)Cn3nc(C(F)(F)F)c4c3C(F)(F)[C@@H]3C[C@H]43)ccc(Cl)c12)S(C)(=O)=O [Compound 10]	1/1 μM
COC(=O)N[C@@H](C)C(=O)N(c1nn(CC(F)(F)F)c2c(-c3ccc(C#CC(C)(C)S(C)(=O)=O)nc3[C@H](Cc3cc(F)cc(F)c3)NC(=O)Cn3nc(C(F)(F)F)c4c3C(F)(F)[C@@H]3C[C@H]43)ccc(Cl)c12)S(C)(=O)=O [Compound 7]	1/1 μM
C[C@H](CC(=O)O)C(=O)N(c1nn(CC(F)(F)F)c2c(-c3ccc(C#CC(C)(C)S(C)(=O)=O)nc3[C@H](Cc3cc(F)cc(F)c3)NC(=O)Cn3nc(C(F)(F)F)c4c3C(F)(F)[C@@H]3C[C@H]43)ccc(Cl)c12)S(C)(=O)=O [Compound 26]	1/1 μM
